Assay: gradient 5% acetonitrile 3 min, to 50% in 2 min, to 85% in 15 min, held 3 min, 100 µL/min
Settings: column: Zorbax Extend-C18 2.1 x 50 mm; eluents: water / acetonitrile, 0.1% formic acid
Kindly supply the reported RP-LC retention time values for the records listed here.
Put down the number, then write its unit next to it.

molecule	RP-LC retention time
COc1ccc2[nH]cc(CCNC(=O)c3cc4n(n3)CCCN(Cc3ccc(Cl)cc3)C4=O)c2c1	693 s
Cn1nc(-c2nnc(-c3ccc(F)cc3)o2)c2c1CCN(S(=O)(=O)c1ccc(F)cc1F)C2	985 s

Dear colleague, could you please provide RP-LC retention time for the molecules listed below?
1. O=C(NC1CCCCC1)c1ccc(Cn2cncn2)cc1
2. CC(C)c1ccc(NC(=O)C2CC(=O)N(CCc3c[nH]c4ccc(F)cc34)C2)cc1 (stereo unspecified)
3. Cc1ccccc1S(=O)(=O)N1CCN(c2nc3ccncc3n(CC(C)C)c2=O)CC1
4. CC(C)c1nc(-c2ccc([N+](=O)[O-])cc2)cs1
5. CCn1ccc(C(=O)N2CC(N(C3CCOCC3)S(C)(=O)=O)C2)n1
6. Fc1ccc(F)c(CNc2nnc(-c3nc(C4CC4)no3)c3ccccc23)c1

**A:**
["671 s", "929 s", "775 s", "1120 s", "625 s", "672 s"]

Report RP-LC retention time for each item below.
1. O=C(NC1CC1)c1cccc(OCC2CCCN(C(=O)C3CCC3)C2)c1 (stereo unspecified)
2. CC1CCN(C(=O)c2cc3c(s2)CCC(C(=O)N2CCCC2)C3)CC1 (stereo unspecified)
3. CCS(=O)(=O)N(C)C1CCc2nn(Cc3ccccc3)c(=O)n2CC1 (stereo unspecified)
4. Cc1cnc(-c2ccncc2)n1CCNS(=O)(=O)c1ccc2c(c1)CCC2
5. Cc1cnn(Cc2nc(-c3ccc(NC(=O)COc4ccccc4)cc3)oc2C)c1

**A:**
1: 789 s; 2: 849 s; 3: 710 s; 4: 633 s; 5: 869 s
